Provide the reported protein stability index of each item.
B1: SLC35F2 (parent)
chain: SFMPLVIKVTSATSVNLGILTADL

- Variants of: B1
- Method: protein stability index of a GFP-peptide fusion (GPS, HEK-293T) (PSI 1-6); higher = more stable;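 note: lentivirally expressed fusions sorted by FACS into six bins by GFP to DsRed ratio, PSI derived from sequencing read proportions per bin multiplied by bin number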
- Protocol Conditions: c terminus: a fixed tail appended
Reply with just the number.

Quick one: give measured protein stability index for I7E
1.49

Quick one: give measured protein stability index for P4Q
4.03

Quick one: give measured protein stability index for L20H
3.07

Quick one: give measured protein stability index for T21I
3.26

Quick one: give measured protein stability index for N16A
2.18

Quick one: give measured protein stability index for S14N
3.45

Quick one: give measured protein stability index for G18P
2.47

Quick one: give measured protein stability index for T13N
2.55

Quick one: give measured protein stability index for A12M
2.9

Quick one: give measured protein stability index for N16Q
3.34

Quick one: give measured protein stability index for N16K
3.43

Quick one: give measured protein stability index for M3W
4.7

Quick one: give measured protein stability index for F2N
2.48

Quick one: give measured protein stability index for I7D
1.98

Quick one: give measured protein stability index for S1T
3.15

Quick one: give measured protein stability index for S11N
4.93

Quick one: give measured protein stability index for V9N
2.39

Quick one: give measured protein stability index for I7W
3.77

Quick one: give measured protein stability index for L20T
2.55

Quick one: give measured protein stability index for I19A
3

Quick one: give measured protein stability index for L17A
2.48

Quick one: give measured protein stability index for S11I
4.08

Quick one: give measured protein stability index for V15C
2.21

Quick one: give measured protein stability index for S14P
2.44

Quick one: give measured protein stability index for A22V
3.18

Quick one: give measured protein stability index for V15W
4.14

Quick one: give measured protein stability index for S1K
5.06

Quick one: give measured protein stability index for L20M
2.92

Quick one: give measured protein stability index for V6E
1.24

Quick one: give measured protein stability index for L17S
2.85

Quick one: give measured protein stability index for V15P
2.73

Quick one: give measured protein stability index for S11M
3.94

Quick one: give measured protein stability index for N16G
2.93

Quick one: give measured protein stability index for L17R
2.5

Quick one: give measured protein stability index for K8Q
2.87

Quick one: give measured protein stability index for S1Y
3.38

Quick one: give measured protein stability index for T13W
2.75

Quick one: give measured protein stability index for N16T
3.43

Quick one: give measured protein stability index for T13Q
2.25

Quick one: give measured protein stability index for L17W
3.32

Quick one: give measured protein stability index for M3K
2.4

Quick one: give measured protein stability index for I19L
2.54

Quick one: give measured protein stability index for L20Q
3.08

Quick one: give measured protein stability index for P4T
2.71

Quick one: give measured protein stability index for A12W
1.91

Quick one: give measured protein stability index for K8M
2.42
